# maps each entry to its growth inhibition
# ASSAY: NCI Yeast Anticancer Drug Screen. Data for the rad18 strain (AID 177)
# SETTINGS: S. cerevisiae rad18 mutant growth inhibition; at 33.0 µM; hits give high values
The panel holds about 79,000 compounds, 15% with a hit somewhere; the sample as a whole holds those more often.
Give the value in % but do not write % after it.

1) O=[N+]([O-])c1ccc(C=Cc2ccccc2)cc1.[C-]#[O+].[C-]#[O+].[C-]#[O+].[Cr]: 89

Return reported growth inhibition; argument: CNC(=O)OCC1C2=C(C(=O)C(C)=C(N)C2=O)N2CC3C(N3C)C12OC (stereo unspecified)
73

Return reported growth inhibition; argument: COC(=O)c1c(C)ccc2c(O)c3c(cc12)C(=O)c1c2c(cc(O)c1C3=O)C1(C)OC(C)(O2)C(O)C(N(C)C)C1O (stereo unspecified)
95

Return reported growth inhibition; argument: CCCCCCCCCCCCCCCCP(=O)(O)OCC(N)C(=O)O (stereo unspecified)
14

Return reported growth inhibition; argument: CCCCCCCCCC[Se]C#N
63

Return reported growth inhibition; argument: CN(C)CCSC1=Nc2ccc(Cl)cc2C(c2ccccc2Cl)=NC1
15

Return reported growth inhibition; argument: CC[C@](O)(C(=O)O)c1cc2n(c(=O)c1CO)Cc1cc3ccccc3nc1-2
93

Return reported growth inhibition; argument: C/C(=N\O)c1ccc2ccc3ccccc3c2c1
92

Return reported growth inhibition; argument: O=C1c2ccc3ccccc3c2CCC1N1CCCCC1 (stereo unspecified)
65

Return reported growth inhibition; argument: O=C(/C=C(\c1ccccc1)N1CC1)c1ccccc1
16
